Numbers sourced from PubChem BioAssay AID1159565.

System: T. cruzi-infected H9C2 cardiomyocytes, high-content imaging
Assay: intracellular T. cruzi amastigote inhibition, imaging, H9C2 host cardiomyocytes, host toxicity (AID 1159565);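 further: infected cells incubated 72 h after plating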
Settings: measured here: H9C2 host cell toxicity
pIC50: −log10 of the molar value.
recordedMetric: pIC50

Please review the entries below; each comes with its answer.
CCC(CC)C(=O)Nc1ccc(-c2nnc(-c3ccc(OC)cc3)o2)cc1 :: < 4.30
CCCN(Cc1ccc(OC)c(OC)c1)Cc1cc(=O)c2c(C)cc(C)cc2[nH]1 :: < 4.30
CCC(=O)N1N=C(c2ccc3c(c2)CCCC3)Sc2c1ncn2C(=O)CC :: < 4.30
Cc1cc(C)n(-c2nc(NC(C)(C)C)nc(N3CCOCC3)n2)n1 :: 5.89
N#Cc1ccc(S(=O)(=O)N2CCC3(CCN(c4ccccc4)C3=O)CC2)cc1 :: < 4.30

*Q* Give recorded pIC50. CCOc1ccc(CC(=O)N2c3ccccc3CC2C(=O)NC)cc1 (stereo not given)
*A* < 4.30

*Q* Give recorded pIC50. COc1cccc(CCNC(=O)C(c2cn[nH]c2)N2CCN(c3ccc(Cl)cc3)CC2)c1 (stereo not given)
*A* 4.40

*Q* Give recorded pIC50. CC(C(=O)Nc1ccccc1F)N(C)CC(=O)Nc1cccc2ccccc12 (stereo not given)
*A* < 4.30

*Q* Give recorded pIC50. O=C1NCCn2ccc(Nc3nc(NC4CCC(O)CC4)ncc3Cl)c21 (stereo not given)
*A* 6.40

###

Tested on: T. cruzi-infected H9C2 cardiomyocytes, high-content imaging
Assay: intracellular T. cruzi amastigote inhibition, imaging, H9C2 host cardiomyocytes, host toxicity (AID 1159565);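 further: infected cells incubated 72 h after plating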
Details: measured here: H9C2 host cell toxicity
recordedMetric: pIC50
// field semantics: pIC50 = negative decimal log of concentration (mol/L)

Please review the entries below; each comes with its answer.
COc1cnc2ccc(=O)n(CCN3CCC(NC/C=C/c4cc(F)ccc4F)CC3)c2c1 :: 4.80
O=[N+]([O-])c1ccc(-c2nnn(-c3cccnc3)n2)o1 :: 5.20

API: the following record is the query input.
*Q* Would you please give the reported pIC50 of COc1ccc2ncc(Cl)c(CCN3CC[C@H](NCc4cc5c(cn4)OCS5)[C@@H](O)C3)c2n1 with T. cruzi-infected H9C2 cardiomyocytes, high-content imaging?
*A* 5.00

###

System: T. cruzi-infected H9C2 cardiomyocytes, high-content imaging
Assay: intracellular T. cruzi amastigote inhibition, imaging, H9C2 host cardiomyocytes, host toxicity (AID 1159565);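 further: infected cells incubated 72 h after plating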
Conditions: measured here: amastigotes per cell
Catalogue of pIC50 values
// field semantics: pIC50 = negative decimal log of concentration (mol/L)

CCN(Cc1nc2ccc(C(=O)N3CCN(c4ncccn4)CC3)cc2[nH]1)C1CCCc2cccnc21 (stereo unspecified) :: 5.70

*Q* Give recorded pIC50. COc1ccc(C2CC(c3ccccc3Cl)=NN2C(=O)CNC(=O)C2CCCC2)cc1 (stereo unspecified)
*A* 5.70

*Q* Give recorded pIC50. COc1ccc2nccc([C@H](O)CN3CC[C@H](NC(=O)c4ccc(Br)cc4)[C@@H](O)C3)c2n1
*A* 6.80

*Q* Give recorded pIC50. COc1ccc(NS(=O)(=O)c2cc(NC(=O)Cc3ccc(C)cc3)ccc2N2CCOCC2)cc1
*A* 5.60

*Q* Give recorded pIC50. COCc1cc(Nc2ccccc2)nc(-c2ccccn2)n1
*A* 4.89

*Q* Give recorded pIC50. CC(C)C[C@H](NC(=O)c1csc(-c2cccs2)n1)C(=O)NC1(C#N)CC1
*A* 4.70
